biological target: Estrogen receptor (Homo sapiens) (UniProt P03372); assay: Relative binding affinity to ERalpha by radiometric binding assay relative to estradiol
Sequence (P03372 whole entry): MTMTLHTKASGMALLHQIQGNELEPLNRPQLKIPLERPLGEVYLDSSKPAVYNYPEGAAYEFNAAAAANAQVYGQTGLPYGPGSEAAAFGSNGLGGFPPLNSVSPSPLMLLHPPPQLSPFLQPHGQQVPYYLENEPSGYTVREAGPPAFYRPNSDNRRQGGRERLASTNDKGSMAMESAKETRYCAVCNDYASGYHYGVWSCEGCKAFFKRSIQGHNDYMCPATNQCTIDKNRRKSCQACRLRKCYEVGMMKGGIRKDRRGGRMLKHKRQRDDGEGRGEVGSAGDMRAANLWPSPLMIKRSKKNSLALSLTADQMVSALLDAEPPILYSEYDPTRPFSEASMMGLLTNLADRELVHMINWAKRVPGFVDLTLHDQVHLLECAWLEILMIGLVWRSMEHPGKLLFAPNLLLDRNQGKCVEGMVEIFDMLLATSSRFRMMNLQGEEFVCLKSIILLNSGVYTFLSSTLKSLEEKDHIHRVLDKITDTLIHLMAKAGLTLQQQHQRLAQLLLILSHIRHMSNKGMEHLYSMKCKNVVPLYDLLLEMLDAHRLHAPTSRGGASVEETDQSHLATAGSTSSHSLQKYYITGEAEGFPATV
attribute.measured: relative binding affinity (RBA)

The following molecules have reported results that may help.
# smiles.data, assay.target, result.value
rows = [
    ("Cc1c(-c2ccc(O)cc2)n(CCCCCCO)c2ccc(O)cc12", "Estrogen receptor (Homo sapiens) (UniProt P03372)", 13),
    ("Cc1c(-c2ccc(O)cc2)n(Cc2ccc(O)cc2)c2ccc(O)cc12", "Estrogen receptor (Homo sapiens) (UniProt P03372)", 10),
    ("COc1ccc(Cn2c(-c3ccc(O)cc3)c(C)c3cc(O)ccc32)cc1", "Estrogen receptor (Homo sapiens) (UniProt P03372)", 11),
]

I = COCCCCCCn1c(-c2ccc(O)cc2)c(C)c2cc(O)ccc21
II = CC(=O)NCCNCc1ccc(OCCCn2c(-c3ccc(O)cc3)c(C)c3cc(O)ccc32)cc1
Prompt: Which value of relative binding affinity (RBA) is smaller, the one for I or the one for II ? Selection: enter the item's label.
Response: II

---

biological target: Estrogen receptor beta (Homo sapiens) (UniProt Q92731); assay: Relative binding affinity to ERbeta by radiometric binding assay relative to estradiol
Sequence (Q92731 whole entry): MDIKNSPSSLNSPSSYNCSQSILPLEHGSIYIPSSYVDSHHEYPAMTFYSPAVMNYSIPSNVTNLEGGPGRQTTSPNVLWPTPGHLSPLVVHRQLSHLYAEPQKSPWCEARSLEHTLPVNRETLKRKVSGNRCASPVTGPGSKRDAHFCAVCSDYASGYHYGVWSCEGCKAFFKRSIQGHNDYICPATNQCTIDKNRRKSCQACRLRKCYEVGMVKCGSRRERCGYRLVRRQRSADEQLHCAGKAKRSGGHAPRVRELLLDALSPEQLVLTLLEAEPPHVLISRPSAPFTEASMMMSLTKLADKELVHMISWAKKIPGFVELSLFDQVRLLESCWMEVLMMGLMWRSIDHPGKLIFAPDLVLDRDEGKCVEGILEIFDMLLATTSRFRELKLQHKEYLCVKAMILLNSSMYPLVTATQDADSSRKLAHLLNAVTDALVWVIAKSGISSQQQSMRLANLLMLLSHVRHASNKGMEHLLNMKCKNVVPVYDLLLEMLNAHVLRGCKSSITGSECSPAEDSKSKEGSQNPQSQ
attribute.measured: relative binding affinity (RBA)

I = Cc1c(-c2ccc(O)cc2)n(CCCCCCO)c2ccc(O)cc12
II = CC(=O)NCCNCc1ccc(OCCCn2c(-c3ccc(O)cc3)c(C)c3cc(O)ccc32)cc1
Prompt: Could you tell me which of I and II has the lower relative binding affinity (RBA) reading? Indicate which entry you chose by stating its label.
Response: II
(II: 0.24, I: 1.4)

I = CCCCOCCCCCCn1c(-c2ccc(O)cc2)c(C)c2cc(O)ccc21
II = CCCCOc1ccc(Cn2c(-c3ccc(O)cc3)c(C)c3cc(O)ccc32)cc1
Prompt: Hey, between I and II which has a smaller measured relative binding affinity (RBA)? // respond with label for picked entry
Response: II

---

target: Estrogen receptor beta (Homo sapiens) (UniProt Q92731); assay: Relative binding affinity to ERbeta by radiometric binding assay relative to estradiol
attribute.measured: relative binding affinity (RBA)

# smiles.data, relative binding affinity (RBA)
records = [
    ("COCCCCCCn1c(-c2ccc(O)cc2)c(C)c2cc(O)ccc21", 2),
]

1 = CCSC(SCC)c1ccc(OCCCn2c(-c3ccc(O)cc3)c(C)c3cc(O)ccc32)cc1
2 = COc1ccc(Cn2c(-c3ccc(O)cc3)c(C)c3cc(O)ccc32)cc1
3 = Cc1ccc(C(=O)NCCCCn2c(-c3ccc(O)cc3)c(C)c3cc(O)ccc32)cc1
Prompt: In this exercise, place the 3 compounds in ascending sequence of their recorded relative binding affinity (RBA). Rank the items, then write their labels in that order.
Response: 3, 1, 2
